Assay: small-molecule binders of probe aNOTCH3, primary screen, biochemical, small-molecule microarray, 635/667 nm fluorescence (AID 1120);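 further: probe is a biotin-tagged antibody raised against NOTCH3 rather than NOTCH3 protein; score merges spot fluorescence near 667 nm with spot signal to noise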
Settings: higher = more signal
quantity_name: composite z-score

Record `CN(C)CCCNC(=O)[C@@H]1c2ccccc2C(=O)N(C2Cc3ccccc3C2)[C@H]1c1ccc(CO)cc1` , field composite z-score: -0.45

Record `CCCC[C@@H](O)C1=C(COC)Cn2c(=O)n(-c3ccccc3)c(=O)n2[C@H]1CO` , field composite z-score: -0.0967

Record `COC(=O)[C@@H]1N=C(c2ccc(OCCCO)cc2)O[C@@H]1c1ccccc1CN=[N+]=[N-]` , field composite z-score: 0.181

Record `NC(=O)NCC#Cc1ccc2c(c1)[C@]1(C(=O)N2)[C@H](C(=O)Nc2nc3ccccc3s2)[C@H]2C(=O)O[C@H](c3ccccc3)[C@H](c3ccccc3)N2[C@@H]1c1ccc(OCCO)cc1` , field composite z-score: -0.0956
